Biological target: Amyloid-beta precursor protein (Homo sapiens)
Sequence (P05067 whole entry): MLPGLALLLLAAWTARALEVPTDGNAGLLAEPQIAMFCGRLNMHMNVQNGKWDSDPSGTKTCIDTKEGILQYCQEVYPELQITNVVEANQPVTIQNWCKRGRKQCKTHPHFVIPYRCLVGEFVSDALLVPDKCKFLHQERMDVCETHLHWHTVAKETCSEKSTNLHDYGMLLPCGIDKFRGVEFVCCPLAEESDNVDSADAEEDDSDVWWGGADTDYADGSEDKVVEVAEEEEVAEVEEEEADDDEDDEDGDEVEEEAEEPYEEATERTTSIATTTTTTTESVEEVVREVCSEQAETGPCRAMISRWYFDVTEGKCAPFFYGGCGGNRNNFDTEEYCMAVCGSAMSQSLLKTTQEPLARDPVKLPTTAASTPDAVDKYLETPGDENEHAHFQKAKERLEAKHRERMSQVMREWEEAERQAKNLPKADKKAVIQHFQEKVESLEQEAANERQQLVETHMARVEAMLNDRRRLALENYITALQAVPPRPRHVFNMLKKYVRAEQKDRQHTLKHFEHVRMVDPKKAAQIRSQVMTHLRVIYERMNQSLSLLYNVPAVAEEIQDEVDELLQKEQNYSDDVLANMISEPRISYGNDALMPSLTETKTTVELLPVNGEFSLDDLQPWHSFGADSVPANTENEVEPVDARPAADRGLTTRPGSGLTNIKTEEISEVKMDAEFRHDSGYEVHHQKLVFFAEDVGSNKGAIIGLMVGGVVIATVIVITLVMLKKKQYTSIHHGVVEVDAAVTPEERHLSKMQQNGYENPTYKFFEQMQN
Experiment: biochemical
Description: Displacement of [125I]TZDM from amyloid beta (1 to 42) aggregates in Alzheimer's disease-human brain homogenate after 3 hrs by gamma counting
pKi: −log10 of the molar value.
MEASUREMENT_LABEL: pKi

CN(C)c1ccc(-c2nc3ccc(F)cc3s2)cc1 | 8.23
CNc1ccc(-c2nc3ccc(F)cc3s2)cc1 | 8.26

---

Test: physchem
Settings: octanol/PBS
Description: Octanol-PBS partition coefficient, log P of the compound by gamma counter
MEASUREMENT_LABEL: logP

CN(C)c1ccc(-c2nc3ccc(F)cc3s2)cc1 | 3.6
CNc1ccc(-c2nc3ccc(F)cc3s2)cc1 | 3.2

---

Assay: in vitro
Conditions: human, serum
Description: Metabolic stability in human serum assessed as compound remaining at 3.7 MBq after 120 mins by radio-TLC
MEASUREMENT_LABEL: remaining at 2 h, 3.7 MBq (%)

CNc1ccc(-c2nc3ccc([18F])cc3s2)cc1 | 90
CN(C)c1ccc(-c2nc3ccc([18F])cc3s2)cc1 | 90
